# System: M14 melanoma
# Assay text: NCI-60 one-dose screen, 48 h (100 = growth as untreated, 0 = no growth, -100 = all killed)
# Assay setup: 10 µM unless noted
About 83,000 compounds went through this panel and 20% of them were active in at least one assay; those are over-represented in the sample as a whole.
Assign growth to each entry below.
Write the answer as a number in %, unit excluded.

Item: Brc1ccc(C2CC(c3cccc(Nc4ccncc4)c3)=NN2c2ccccc2)cc1 (stereo not drawn) | growth: 101

Item: COc1cc2c(cc1[N+](=O)[O-])-c1ccc([N+](=O)[O-])cc1/C2=N/NC(N)=S | growth: 82.8

Item: CC(=O)c1c(-c2ccc(OC(F)(F)F)cc2)nc2ccccn12 | growth: 89.8

----------
# Tested on: CAKI-1 renal
# Assay text: NCI-60 one-dose screen, 48 h (100 = growth as untreated, 0 = no growth, -100 = all killed)
# Assay setup: 10 µM unless noted
The panel holds about 83,000 compounds, 20% with a hit somewhere; the sample as a whole holds those more often.
Criterion: growth strictly under 50%. Met: yes (1). Not met: no (0).

Exam item: For CN1C(=O)N(C)[C@H]2NC(NN)=N[C@H]21 , is the recorded growth below the cut-off of 50%?
Marked response: no (0)

Exam item: For COc1cc(/C=C2\C(=O)N(Cc3ccc(Cl)cc3)c3ccccc32)cc(OC)c1OC , is the recorded growth below the cut-off of 50%?
Marked response: yes (1)

Exam item: For Cc1ccc(C2CC(c3cccc(Nc4ccncc4)c3)=NN2c2cc(Cl)cc(Cl)c2)cc1 (stereo not given) , is the recorded growth below the cut-off of 50%?
Marked response: yes (1)

Exam item: For NC(=O)c1ccc[n+](CC(=O)N2CCN(c3cc4c(cc3F)c(=O)c(C(=O)O)cn4C3CC3)CC2)c1 , is the recorded growth below the cut-off of 50%?
Marked response: no (0)

Exam item: For CC(Oc1ccc(C(=O)NS(=O)(=O)C(C)(C)C)cc1C(F)(F)F)c1ccc(Oc2ccccc2)cn1 (stereo not given) , is the recorded growth below the cut-off of 50%?
Marked response: yes (1)

Exam item: For CCCCCCOc1ccc(C(=N)N(CCCC)CCCC)c2ccccc12 , is the recorded growth below the cut-off of 50%?
Marked response: yes (1)

Exam item: For Clc1ccc(C2CC(c3cccc(Nc4ccncc4)c3)=NN2c2ccccc2)cc1 (stereo not given) , is the recorded growth below the cut-off of 50%?
Marked response: no (0)

Exam item: For NC(=O)CN1CCN(c2ccccc2Cl)CC1 , is the recorded growth below the cut-off of 50%?
Marked response: no (0)

Exam item: For COc1cc(NCCN(CC(C)C)C2CCCC2)c2ncccc2c1 , is the recorded growth below the cut-off of 50%?
Marked response: no (0)

Exam item: For COc1cccc(NC(=O)c2cccc(-c3cc(=O)c4c(OC)c(OC)c(OC)cc4o3)c2)c1 , is the recorded growth below the cut-off of 50%?
Marked response: no (0)

Exam item: For CC(C)NC(=O)N1C(=O)CCC1NNC(=O)c1ccc([N+](=O)[O-])cc1 (stereo not given) , is the recorded growth below the cut-off of 50%?
Marked response: no (0)

Exam item: For COc1cc(CCNc2nc3cc(N)cc(N)c3nc2-c2ccccc2)cc(OC)c1 , is the recorded growth below the cut-off of 50%?
Marked response: no (0)

Exam item: For O=C(CN1CCOCC1)Nc1ccc2ncnc(Nc3ccc(Oc4cccc(C(F)(F)F)c4)c(Cl)c3)c2c1 , is the recorded growth below the cut-off of 50%?
Marked response: yes (1)

Exam item: For COc1ccc(C(=O)c2cc3c(N)c(C(=O)Nc4cccc(Br)c4C)sc3nc2C)cc1 , is the recorded growth below the cut-off of 50%?
Marked response: yes (1)

Exam item: For O=C(Nc1cccc(Cl)c1)c1cc(Cl)ccc1O , is the recorded growth below the cut-off of 50%?
Marked response: yes (1)

Exam item: For COc1cc(NCC(O)CN(CC(C)C)C2CCCC2)c2ncccc2c1 (stereo not given) , is the recorded growth below the cut-off of 50%?
Marked response: no (0)

Exam item: For Fc1ccc2nc3c(cc2c1)CSc1nnc(-c2ccc[nH]c2=S)n1N3 , is the recorded growth below the cut-off of 50%?
Marked response: no (0)

Exam item: For COc1cccc2cc(-c3cc4ccccc4[nH]3)/c(=N/C(=S)Nc3ccc(C)cc3)oc12 , is the recorded growth below the cut-off of 50%?
Marked response: yes (1)

Exam item: For Cc1c(C(=O)NO)sc2ncnc(Nc3ccc(NC(=S)Nc4ccccc4)cc3)c12 , is the recorded growth below the cut-off of 50%?
Marked response: no (0)

----------
# Tested on: UO-31 renal
# Assay text: NCI-60 one-dose screen, 48 h (100 = growth as untreated, 0 = no growth, -100 = all killed)
# Assay setup: 10 µM unless noted
Compounds without any hit were thinned out: in the full panel of roughly 83,000, 20% have a hit.
Classification field: t = growth at or over 70%; f = growth under 70%.

Exam item: Tell me whether growth is at least 70% here: Clc1ccc(N2N=C(c3cccc(Nc4ccncc4)c3)CC2c2ccc(Br)cc2)cc1 (stereo unspecified)
Marked response: f

Exam item: Tell me whether growth is at least 70% here: O=C(CCN1CCCC1)Nc1ccc2c(NCc3ccc(F)cc3)c3ccccc3nc2c1
Marked response: f

Exam item: Tell me whether growth is at least 70% here: CC1(C)CCCN1CCCN1c2ccccc2Sc2ccc(Cl)cc21
Marked response: f

Exam item: Tell me whether growth is at least 70% here: CCOC(=O)Oc1c(OC)cc(C(=O)O[C@@H]2C[C@@H]3CN4CCc5c([nH]c6cc(OC)ccc56)[C@H]4C[C@@H]3[C@H](C(=O)OC)[C@H]2OC)cc1OC
Marked response: t

Exam item: Tell me whether growth is at least 70% here: C#CCNC(=O)[C@H](Cc1ccccc1)NC(=O)[C@]12CC[C@@H](C(=C)C)[C@@H]1[C@H]1CC[C@@H]3[C@@]4(C)Cc5c([nH]c6ccccc56)C(C)(C)[C@@H]4CC[C@@]3(C)[C@]1(C)CC2
Marked response: t

Exam item: Tell me whether growth is at least 70% here: O=C(NCCc1ccccn1)OCc1nc2nc(Cl)nc(N3CCOCC3)c2[nH]1
Marked response: f

Exam item: Tell me whether growth is at least 70% here: CC(=O)Nc1ccc(S(=O)(=O)NC2CCCCC2)cc1
Marked response: t

Exam item: Tell me whether growth is at least 70% here: COc1cc(/C=N/NC(=O)c2ccccc2Nc2cccc(C(F)(F)F)c2)ccc1O
Marked response: t

Exam item: Tell me whether growth is at least 70% here: Cc1nn(-c2ccccc2)c(N2CCOCC2)c1/C=N/N=c1\sc2ccccc2n1C
Marked response: f

Exam item: Tell me whether growth is at least 70% here: C=CCn1c(SCC(=O)Nc2ccc(C(=O)/C=C/c3cc(OC)c(OC)c(OC)c3)cc2)nnc1-c1cc(OC)c(OC)c(OC)c1
Marked response: f

Exam item: Tell me whether growth is at least 70% here: COc1ccc2c(c1)c(CC(=O)NCCOCCOCC(=O)Nc1ccc(OC)c(C(N)=O)c1O)c(C)n2C(=O)c1ccc(Cl)cc1
Marked response: t

Exam item: Tell me whether growth is at least 70% here: O=C1NC(=S)NC(=O)C1=Cc1cccc(C=C2C(=O)NC(=S)NC2=O)c1
Marked response: t

Exam item: Tell me whether growth is at least 70% here: Cc1ccccc1CNc1ccc(N2CCOCC2)cc1
Marked response: t

Exam item: Tell me whether growth is at least 70% here: CC(=O)OCCCCCNc1ccccc1
Marked response: t

Exam item: Tell me whether growth is at least 70% here: CCCCCCCCCCCCC1CCC/C=C\CCC(=O)O1 (stereo unspecified)
Marked response: t

Exam item: Tell me whether growth is at least 70% here: CN1CCN(CCCNc2nccc(-c3c(-c4ccc(F)c(O)c4)nc4sccn34)n2)S1(=O)=O
Marked response: t

Exam item: Tell me whether growth is at least 70% here: CCCCCCCCCCCCCCCCCCOc1ccccc1N
Marked response: f

Exam item: Tell me whether growth is at least 70% here: O=C(Nc1sc2c(c1C(=O)O)CCCC2)c1cccc(C(F)(F)F)c1
Marked response: t

Exam item: Tell me whether growth is at least 70% here: COc1nc(N)nc(-n2c(-c3ccc(C)cc3)nc3ccccc32)c1NCc1ccc(C)cc1
Marked response: f

Exam item: Tell me whether growth is at least 70% here: CCCCCCCCCCCC(=O)C(CCCCCCCCCC)C(=O)Nc1ccccc1 (stereo unspecified)
Marked response: t

Exam item: Tell me whether growth is at least 70% here: CC(=O)OCC(=O)C1(O)C(C)CC2C3C=C(C)C4=Cc5c(cnn5-c5ccccc5)CC4(C)C3C(O)CC21C (stereo unspecified)
Marked response: f

Exam item: Tell me whether growth is at least 70% here: NC(=O)CN1CCN(c2ccccc2Cl)CC1
Marked response: t

Exam item: Tell me whether growth is at least 70% here: C=C(C)[C@@H]1CC[C@]2(C(=O)NCC(=O)OC)CC[C@]3(C)[C@H](CC[C@@H]4[C@@]5(C)Cc6c([nH]c7ccccc67)C(C)(C)[C@@H]5CC[C@]43C)[C@@H]12
Marked response: f

Exam item: Tell me whether growth is at least 70% here: Nc1nc(N)nc(NCc2ccccc2)n1
Marked response: t

Exam item: Tell me whether growth is at least 70% here: Cc1n[nH]c(C)c1-c1c(C)n[nH]c1C
Marked response: f

Exam item: Tell me whether growth is at least 70% here: CCN(CC)CCCCCCNc1cc(OC)cc2cccnc12
Marked response: f

Exam item: Tell me whether growth is at least 70% here: COc1cc(/C=C2\C(=O)N(Cc3ccc(Cl)cc3)c3ccccc32)cc(OC)c1OC
Marked response: f

Exam item: Tell me whether growth is at least 70% here: O=C1c2ccccc2C(=O)c2c(NCCN=Cc3ccccc3O)cccc21
Marked response: f

Ref: PubChem BioAssay (NCI)
